All values here come from patent US20240342185A1.

# test_target: cGAS (Homo sapiens, UniProt Q8N884)
# Sequence (Q8N884 whole entry): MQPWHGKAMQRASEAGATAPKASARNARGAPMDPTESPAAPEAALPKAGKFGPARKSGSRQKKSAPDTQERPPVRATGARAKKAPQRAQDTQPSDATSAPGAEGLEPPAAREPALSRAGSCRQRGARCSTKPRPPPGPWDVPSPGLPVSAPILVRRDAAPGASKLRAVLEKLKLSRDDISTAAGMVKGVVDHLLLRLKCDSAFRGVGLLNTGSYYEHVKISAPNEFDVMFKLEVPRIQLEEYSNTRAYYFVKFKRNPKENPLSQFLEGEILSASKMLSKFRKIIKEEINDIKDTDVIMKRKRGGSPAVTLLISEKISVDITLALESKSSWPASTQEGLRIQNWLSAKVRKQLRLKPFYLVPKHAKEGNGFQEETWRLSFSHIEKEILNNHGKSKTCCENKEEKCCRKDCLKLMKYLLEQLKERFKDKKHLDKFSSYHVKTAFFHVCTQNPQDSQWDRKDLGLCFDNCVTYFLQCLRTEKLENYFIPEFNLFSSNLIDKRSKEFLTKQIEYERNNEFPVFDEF
assay_endpoint: IC50 (nM)
// note: answer is a bare numeric in nM

Task: Returns the measured IC50 for the input molecule. Input: `Nc1cc(C2CCN(C(=O)c3cc4ccccc4[nH]3)CC2)no1`
Result: 890
